B1: library; a variant is named by its letters at N, in order (parent)
chain: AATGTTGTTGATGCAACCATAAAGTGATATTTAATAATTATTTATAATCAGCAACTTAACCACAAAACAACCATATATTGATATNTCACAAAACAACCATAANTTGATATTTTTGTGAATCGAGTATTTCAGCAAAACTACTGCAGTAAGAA

# Variants of: B1
# Procedure Summary: relative integration efficiency (T-LR orientation) vs wild-type transposon end (log2 (normalized fold change)); transposon end mutated: left end; higher = more efficient transposition
# Measurement Conditions: with VchCAST RNA-guided transposition machinery (E. coli BL21(DE3) host, lacZ target)
Assign class by relative integration efficiency (log2): not lower than -0.1 means Yes; lower than -0.1 means No.

Decide: relative integration efficiency (log2) of TA A16C G24T T32G A33C T76A A77G C87T T104G T113A >= -0.1?
No

Decide: relative integration efficiency (log2) of CG A88C C89A >= -0.1?
Yes

Decide: relative integration efficiency (log2) of TA A23G G24T A33T A70C T76A T84A C87A T104G T113A >= -0.1?
No

Decide: relative integration efficiency (log2) of CG T31A T32A >= -0.1?
No

Decide: relative integration efficiency (log2) of TA A23G G24T A33T T76A T78G C87A A102T T111C T113C >= -0.1?
No

More entries:
Decide: relative integration efficiency (log2) of CG A58C A59C >= -0.1?
No
